melting point for assorted compounds

Cc1nc(N2CCCCC2)c2[nH]c(-c3ccc(C)c(C)c3)cc2n1.Cl (hydrate or solvate) ... 198 to 201 °C

Query: I would be grateful if you could share the reported melting point for Cc1nc(N2CCCCC2)c2[nH]c(-c3ccccc3)c(-c3ccccc3)c2n1.Cl (hydrate or solvate) .
Result: 169 to 171 °C

Query: Query (compound): Cc1nc(N2CCCCC2)c2[nH]c(-c3ccc(Cl)c(Cl)c3)cc2n1.Cl (hydrate or solvate) ; field requested: melting point
Result: 265 to 268 °C

Query: For Cc1nc(N2CCCCC2)c2[nH]c(-c3ccc(C(F)(F)F)cc3)c(C)c2n1.Cl , what is its reported melting point?
Result: > 280 °C
